test-method-notes: NCI Yeast Anticancer Drug Screen. Data for the cln2 rad14 strain (AID 165);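 note: 0% = growth equal to vehicle treated cultures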
conditions-used: S. cerevisiae cln2 rad14 strain, at 50.0 µM, active compounds read high
This is part of a sample that, as a whole, favours compounds with a hit. Of some 79,000 tested, about 15% had one in any assay.
quantity-name: growth inhibition (%)
Record the value in %, omitting the unit from your answer.

Query block: Fill in: growth inhibition of "CC1(C)CN=C(Nc2ccc(Cl)cc2)S1" is ___
Result block: 13.5

Query block: Queued: "OCCCNCc1cccnc1"
Result block: 29.2

Query block: Queued: CC(=O)Oc1ccc(CCN(C)C2CC3CCC2(C)C3(C)C)cc1OC(C)=O (configuration not stated)
Result block: -11.2

Query block: Queued: "Cc1ccc(C(O)(c2ccc(C)cc2)c2ccccn2)cc1"
Result block: -13.8

Query block: Queued: CC(C)C1NC(C(C)C)N2C(C(C)C)N12 (configuration not stated)
Result block: -24.5

Query block: Queued: CCCCCCCCP(=O)(O)OP(=O)(O)OCC1OC(n2ccc(N)nc2=O)C(O)C1O (configuration not stated)
Result block: 7.15

Query block: Queued: "c1ccc([Se+](c2ccccc2)c2ccccc2)cc1"
Result block: -10.1

Query block: Queued: Oc1ccccc1/C=N/C(O)C(Cl)(Cl)Cl (configuration not stated)
Result block: 41.3

Query block: Queued: "O=C([O-])C(=O)[O-].[Co+3].[NH2-].[NH2-].[NH2-].[NH2-].[O-][Cl+3]([O-])([O-])O"
Result block: 15.7

Query block: Queued: "CCNC(=O)N1CC2CCC(C1)N2C"
Result block: -39.1

Query block: Queued: Cc1ccc(N2C(=O)C3C(C2=O)C2(Cl)C(Cl)=C(Cl)C3(Cl)C2(Cl)Cl)cc1Cl (configuration not stated)
Result block: -36.1

Query block: Queued: "CC(=O)CC(C)=O.CC(=O)CC(C)=O.[Cl][Sn][c]1ccccc1"
Result block: 8.4

----------
test-method-notes: NCI Yeast Anticancer Drug Screen. Data for the mlh1 rad18 strain (AID 175)
conditions-used: S. cerevisiae mlh1 rad18 strain growth inhibition; at 50.0 µM; active compounds read high
Compounds without any hit were thinned out: in the full panel of roughly 79,000, 15% have a hit.
The compounds listed here are annotated with their growth inhibition.
Record the value in %, omitting the unit from your answer.

compound: O=C(O)C1C2c3ccccc3C(c3ccccc32)C1C(=O)NCC1CC1 (configuration not stated)
quantity-name: growth inhibition
numeric-value: 24.2
--
compound: COC(=O)CCCCCCCCCCN(CCCl)CCCl
quantity-name: growth inhibition
numeric-value: 67
--
compound: NCCCN1CCN(c2ccccc2)CC1
quantity-name: growth inhibition
numeric-value: -39.5
--
compound: COC[n+]1cccc(C2CCC[N+]2(C)C)c1 (configuration not stated)
quantity-name: growth inhibition
numeric-value: 15.5
--
compound: NCc1c[nH]c2ccccc12
quantity-name: growth inhibition
numeric-value: -9.7
--
compound: CC1(C[N+](C)(C)C)COC(C)(C)O1 (configuration not stated)
quantity-name: growth inhibition
numeric-value: 3.95

Please examine the following record next.
Query block: Fill in: growth inhibition of CC(=O)NC(CS)C(=O)[O-].CC(=O)NC(CS)C(=O)[O-].N.N.[Pt+4] (configuration not stated) is ___
Result block: 27.2

----------
test-method-notes: NCI Yeast Anticancer Drug Screen. Data for the sgs1 mgt1 strain (AID 161);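 note: 0% = growth of cultures given vehicle only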
conditions-used: S. cerevisiae sgs1 mgt1 strain, at 50.0 µM, active compounds read high
Compounds without any hit were thinned out: in the full panel of roughly 79,000, 15% have a hit.
The molecules listed here are annotated with their growth inhibition.
Record the value in %, omitting the unit from your answer.

molecule: CCN(CC)CCc1ccncc1
quantity-name: growth inhibition
numeric-value: 6.65

Query block: Fill in: growth inhibition of "OC1(C#[C][Hg][C]#CC2(O)CCCCC2)CCCCC1" is ___
Result block: 90.7

Query block: Queued: c1ccc2c(c1)SCCC2NC1=NCCO1 (stereo unspecified)
Result block: -9

Query block: Queued: "O[C@H](c1ccccc1)[C@@H](c1ccccc1)N1CCCCC1"
Result block: -3.65

Query block: Queued: "NC(=O)Nc1ccc([As](O)O)cc1"
Result block: -0.45

Query block: Queued: "O=C1CC(=O)NC(=S)N1"
Result block: -13.5

Query block: Queued: COc1ccc(C(C)CNCc2ccccc2)cc1 (stereo unspecified)
Result block: 21.1

Query block: Queued: "CC(=O)Cc1c[nH]c2ccccc12"
Result block: -9.35
